B1: ZNF8 (parent)
chain: VHVIGVEEPSVGASMLFDIREST

variants of: B1; assay: protein stability index of a GFP-peptide fusion (GPS, HEK-293T) (PSI 1-6); higher = more stable; settings: c terminus: native;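 further: lentivirally expressed fusions sorted by FACS into six bins by GFP to DsRed ratio, PSI derived from sequencing read proportions per bin multiplied by bin number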
A collection of variants and their measured protein stability index
Form rule: numeric answer, no unit written next to it.

These solved cases illustrate the format of a correct answer.
[[record]]
mutation_descriptor = "V1R"
endpoint_value = 2.82

[[record]]
mutation_descriptor = "E21P"
endpoint_value = 1.42

[[record]]
mutation_descriptor = "V11I"
endpoint_value = 1.91


Bench note: what protein stability index did S22R show?
1.92

FYI, the data here is from the supplement of paper PMC10567573.
